The measurements presented in this section are drawn from PubChem BioAssay (NCI).

- System: HOP-92 NSCLC
- experiment-notes: NCI tumour cell line growth inhibition, 48 h
quantity-kind: TGI

compound=Cc1cccc2c1NC(=S)[C@@H]1CCCN1C2=O quantity_kind=TGI result="> 100 µM"
compound=COCc1cc2c(cc1/C=C/[N+](=O)[O-])OCO2 quantity_kind=TGI result="36.8 µM"
compound=CN(C)c1ccc2cc(-c3ccccc3F)c(N)nc2c1 quantity_kind=TGI result="9.7 µM"
compound=C(=C\C(SCc1ccccc1)SCc1ccccc1)/c1ccccc1 quantity_kind=TGI result="> 10 µM"
compound=COc1cc[nH]c1/C=C1\C(=O)Nc2ccc(F)c(I)c21 quantity_kind=TGI result="> 25 µM"
compound="COc1cc2c(cc1OC)CC(N=[N+]=[N-])c1cc(OC)c(OC)cc1/C=C\\2 (stereo not given)" quantity_kind=TGI result="> 100 µM"
compound="C=C1CC[C@@H]2[C@](C)(COC(C)=O)[C@H](OC(C)=O)CC[C@@]2(C)[C@@H]1CC(Nc1ccc(S(=O)(=O)Nc2nccc(C)n2)cc1)C1=CCOC1=O (stereo not given in full)" quantity_kind=TGI result="18.9 µM"
compound=CCCCN(Cc1ccc(F)cc1)c1ccc(CO)c(Cl)c1 quantity_kind=TGI result="19.5 µM"
compound=CC(=O)Oc1ccc(O)c(O)c1C/C=C(\C)CC/C=C(\C)CC/C=C(\C)CCC=C(C)C quantity_kind=TGI result="0.886 µM"
compound="CC12CCC(=O)C=C1CCC1C2C(O)CC2(C)C(c3csc(N)n3)CCC12 (stereo not given)" quantity_kind=TGI result="> 100 µM"
